Hey, just so you know, these numbers are from patent US8497254B2.

target: human S1P1 receptor (Homo sapiens, UniProt P21453); construct: membranes were used; experiment: GTP γ35S binding assay for S1P1 activity; details: activity potency from GTP γ35S binding; membrane protein from cells stably expressing the S1P1 receptor; 30 min at 25° C.
Sequence (P21453 whole entry): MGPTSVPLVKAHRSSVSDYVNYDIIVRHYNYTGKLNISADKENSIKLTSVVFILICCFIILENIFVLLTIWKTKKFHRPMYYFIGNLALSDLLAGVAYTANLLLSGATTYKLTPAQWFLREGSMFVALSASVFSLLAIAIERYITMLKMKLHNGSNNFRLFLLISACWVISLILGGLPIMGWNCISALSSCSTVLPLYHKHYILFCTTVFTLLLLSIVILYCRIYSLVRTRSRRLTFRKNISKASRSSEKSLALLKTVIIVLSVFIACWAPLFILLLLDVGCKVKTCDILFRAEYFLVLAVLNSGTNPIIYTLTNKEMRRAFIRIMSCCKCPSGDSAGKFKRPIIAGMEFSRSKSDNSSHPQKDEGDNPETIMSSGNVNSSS

molecule | EC50 [nM]
Cc1ccc(CC(c2cccc(Cl)c2)c2nc(-c3ccc(CNCCCP(=O)(O)O)cc3)no2)cc1C (centres unmarked) | 3.77
Cc1ccc(NC(c2cccc(Cl)c2)c2nc(-c3ccc(CNCCC(=O)O)cc3)no2)cc1C (centres unmarked) | 1.5
Cc1cc(C)cc(C(Cc2ccc(C)c(C)c2)c2nc(-c3ccc(CNCCC(=O)O)cc3)no2)c1 (centres unmarked) | 535
Cc1ccc(CC(c2cccc(C(F)(F)F)c2)c2nc(-c3ccc(CNCCC(=O)O)cc3)no2)cc1C (centres unmarked) | 336
Cc1ccc(CC(c2cccc(F)c2)c2nc(-c3ccc(CNCCCP(=O)(O)O)cc3)no2)cc1C (centres unmarked) | 4.04
Cc1ccc(CC(c2cccc(Cl)c2)c2nc(-c3ccc(CNCCC(=O)O)cc3)no2)cc1C (centres unmarked) | 312
Cc1ccc(CC(c2ccc(Cl)cc2)c2nc(-c3ccc(CCC(=O)O)cc3C)no2)cc1C (centres unmarked) | 89.3
Cc1ccc(CC(c2cc(F)cc(F)c2)c2nc(-c3ccc(CNCCC(=O)O)cc3)no2)cc1C (centres unmarked) | 1100
